- Tested on: MS2 coat protein
- experimentNotes: apparent KD of MS2 coat protein; designed switch direction (-1 OFF switch, 1 ON switch): -1; higher = weaker reporter binding
- experimentalContext: Eterna round: R95; input ligand: microRNA oligo, concentration not stated
Listed next: entries and their corresponding apparent KD of MS2 coat protein.
Could you give the number and then its unit, please?

# count of solved cases: 5
Given the sequence AAGAACAGAGGAUAUCGCGGGCAGCACAUGAGGAUCACCCAUGUGAUGCUCCGCGGGCCGCGAGAAGGCUGAAAUG [Dizabe] (puzzle: Exclusion 5) , what is its reported apparent KD of MS2 coat protein? 9.5 nM

Given the sequence AAUAACAGAGGAUAUACUAUUUUAUGUGUUUAUUGUUUUAAACAUGAGGAUCACCCAUGUAGAAGGCUGAGUAA [JMF 31] (puzzle: Exclusion 2) , what is its reported apparent KD of MS2 coat protein? 37.4 nM

Given the sequence GGUUGGCGAGGAUAUACAUGAGGAUCACCCAUGUCAGAGAAAAAAGUGAGGAAGAAAAGUAGAAGGCGCUGACG [salish99_ex3_r3_017] (puzzle: Exclusion 3) , what is its reported apparent KD of MS2 coat protein? 210 nM

Given the sequence GAAGAAGAGAGAAUAGAAAACAUGAGGAUCACCCAUGUGAGAAGAUGAGGGUGUAGCAGGCUUUUUGCUCGUCUUAU (puzzle: Sensor v3, turn-off variant 1) , what is its reported apparent KD of MS2 coat protein? 119 nM

Given the sequence UCGGCGCGAGGAUAUACGUUUGCUUUUUUUUGUUUUUGUGUACAUGAGGAUCACCCAUGUAGAAGGCGCGCCGC [Apr-15 SS2-21] (puzzle: Exclusion 2) , what is its reported apparent KD of MS2 coat protein? 22 nM

More entries:
Given the sequence GAAAACCUAGGAUAUACAUGAGGAUCACCCAUGUGAAAACCUCUUAAAACUUAACAAUGUAGAAGGAGGAAAAC [Azaqure] (puzzle: Exclusion 3) , what is its reported apparent KD of MS2 coat protein? 43.2 nM

Hey, just so you know, these numbers are from the supplement of paper PMC9170038.
